biological target: Neu5Ac(a2-6)Gal(b1-4)GlcNAc(b1-2)Man(a1-6)[GlcNAc(b1-2)Man(a1-3)]Man(b1-4)GlcNAc(b1-4)GlcNAc; experiment: glycan array binding signal (z-score within array); higher = stronger binding; conditions: glycan notation: IUPAC condensed, linker removed
This is one part of a sample in which the strongest signals are shown more often than they occur.

[
  {
    "BINDER": "GST Gap3 (Streptococcus parasanguinis) (protein) MTKQLISEIYWNEIRKGENYLYGSQIKFQEDLVNFYNPQLASGKPIVTFKSRTNYQGDRHSPDLPILIQGNRYLLEYQIDAVPANSFFLQLDFFNRQAEQIESIVLRNSGESFIFPKDTFTYTLTLMSAGCQSVTYQKFMIYDINDEEKKNHIVENRYLRELLPKDLDLVKNLIEYI",
    "glycan array binding signal (z-score)": -0.269
  },
  {
    "BINDER": "Aap arpt (Staphylococcus epidermidis) (protein) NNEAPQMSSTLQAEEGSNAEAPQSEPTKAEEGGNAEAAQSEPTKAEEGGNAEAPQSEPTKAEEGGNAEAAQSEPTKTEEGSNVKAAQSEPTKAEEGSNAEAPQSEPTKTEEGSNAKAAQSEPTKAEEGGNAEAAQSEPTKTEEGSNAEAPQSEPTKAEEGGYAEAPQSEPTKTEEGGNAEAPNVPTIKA",
    "glycan array binding signal (z-score)": 2.64
  },
  {
    "BINDER": "SBD (Rhizopus oryzae), P07683 (protein) ASIPSSASVQLDSYNYDGSTFSGKIYVKNIAYSKKVTVVYADGSDNWNNNGNIIAASFSGPISGSNYEYWTFSASVKGIKEFYIKYEVSGKTYYDNNNSANYQVS",
    "glycan array binding signal (z-score)": 0.349
  }
]
